Reported IC50 values for a set of compounds
target: Amine oxidase [flavin-containing] A (Homo sapiens); experiment: Inhibition of human MAOA using p-tyramine as substrate after 15 mins by Amplex Red MAO assay
Experimental endpoint: IC50 (µM)

> print(dat)
                                test.smiles  result
1          CC(=O)c1ccc(OCc2ccc(F)c(F)c2)cc1    78.3
2  CC(=O)c1ccc(OCc2cccc([N+](=O)[O-])c2)cc1    51.3
3              CC(=O)c1ccc(OCc2ccccc2Cl)cc1    89.6

----------
biological target: Amine oxidase [flavin-containing] B (Homo sapiens, UniProt P27338); assay: Inhibition of human MAOB using p-tyramine as substrate after 15 mins by Amplex Red MAO assay
Sequence (P27338 whole entry): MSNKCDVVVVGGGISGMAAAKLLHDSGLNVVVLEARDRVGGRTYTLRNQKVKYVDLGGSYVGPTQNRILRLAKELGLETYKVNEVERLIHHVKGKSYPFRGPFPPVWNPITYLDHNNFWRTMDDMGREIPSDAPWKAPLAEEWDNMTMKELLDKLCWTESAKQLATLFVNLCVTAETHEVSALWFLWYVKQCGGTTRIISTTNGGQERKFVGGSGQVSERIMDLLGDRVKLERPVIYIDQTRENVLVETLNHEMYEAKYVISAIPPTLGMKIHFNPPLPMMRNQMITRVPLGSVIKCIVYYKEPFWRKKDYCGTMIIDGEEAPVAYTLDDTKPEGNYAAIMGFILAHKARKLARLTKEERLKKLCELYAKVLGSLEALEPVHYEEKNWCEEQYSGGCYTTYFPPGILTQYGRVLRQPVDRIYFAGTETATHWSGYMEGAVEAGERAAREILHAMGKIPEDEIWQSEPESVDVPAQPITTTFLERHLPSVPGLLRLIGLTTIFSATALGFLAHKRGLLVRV
pIC50: −log10 of the molar value.
// reported pIC50 for each item listed
Experimental endpoint: pIC50

> print(dat)
                                 test.smiles  result
 1          CC(=O)c1ccc(OCc2ccc(F)c(F)c2)cc1    7.17
 2                CC(=O)c1ccc(OCc2ccccc2)cc1    6.96
 3             CC(=O)c1cccc(OCc2cccc(F)c2)c1    6.71
 4    CC(=O)c1ccc(OCc2ccccc2[N+](=O)[O-])cc1    6.55
 5      CC(=O)c1ccc(OCc2ccc(C(F)(F)F)cc2)cc1    7.11
 6       CC(=O)c1ccc(OCc2cc(F)c(F)c(F)c2)cc1    7.08
 7                CC(=O)c1cccc(OCc2ccccc2)c1    5.71
 8      CC(=O)c1cccc(OCc2cccc(C(F)(F)F)c2)c1    7.67
 9            CC(=O)c1ccc(OCc2cccc(Br)c2)cc1    6.67
10             CC(=O)c1cccc(OCc2ccc(F)cc2)c1    7.06
11             CC(=O)c1ccc(OCc2cccc(C)c2)cc1    7.06
12               CC(=O)c1ccc(OCc2ccccc2C)cc1    7.11
13             CC(=O)c1ccc(OCc2cccc(F)c2)cc1    7.08
14      CC(=O)c1ccc(OCc2cccc(C(F)(F)F)c2)cc1    7.24
15  CC(=O)c1ccc(OCc2ccc([N+](=O)[O-])cc2)cc1    7.02
16            CC(=O)c1ccc(OCc2ccc(Br)cc2)cc1    7.07
17               CC(=O)c1ccc(OCc2ccccc2F)cc1    7.24
18  CC(=O)c1cccc(OCc2cccc([N+](=O)[O-])c2)c1    6.94
19            CC(=O)c1ccc(OCc2ccc(F)cc2F)cc1    7.56
20            CC(=O)c1cccc(OCc2cccc(Cl)c2)c1    7.47
21              CC(=O)c1ccc(OCc2ccccc2Cl)cc1    6.51
22      CC(=O)c1cccc(OCc2ccc(C(F)(F)F)cc2)c1    7.36

----------
molecular target: Amine oxidase [flavin-containing] A (Homo sapiens, UniProt P21397); assay: Inhibition of human MAOA using p-tyramine as substrate at 100 uM after 15 mins by Amplex Red MAO assay; conditions: 0.25 h
Sequence (P21397 whole entry): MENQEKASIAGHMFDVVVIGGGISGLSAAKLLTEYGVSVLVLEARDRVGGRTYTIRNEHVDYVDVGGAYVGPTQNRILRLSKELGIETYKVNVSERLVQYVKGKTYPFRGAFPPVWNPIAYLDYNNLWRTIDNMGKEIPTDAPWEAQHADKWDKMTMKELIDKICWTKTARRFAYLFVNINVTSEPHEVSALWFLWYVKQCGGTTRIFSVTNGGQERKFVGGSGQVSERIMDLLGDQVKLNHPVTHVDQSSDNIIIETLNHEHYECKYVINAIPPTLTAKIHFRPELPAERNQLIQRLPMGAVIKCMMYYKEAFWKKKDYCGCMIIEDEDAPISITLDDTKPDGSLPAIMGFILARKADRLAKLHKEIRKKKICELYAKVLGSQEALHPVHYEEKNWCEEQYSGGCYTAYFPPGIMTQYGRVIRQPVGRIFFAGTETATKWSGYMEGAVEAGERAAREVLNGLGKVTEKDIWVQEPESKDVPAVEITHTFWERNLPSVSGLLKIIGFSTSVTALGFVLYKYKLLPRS
In this section, each of the compounds is paired with its reported inhibition at 100 µM.
Experimental endpoint: inhibition at 100 µM (%)

> print(dat)
                                   compound                              assay.target  unit.info  result
1             CC(=O)c1ccc(OCc2cccc(C)c2)cc1  Amine oxidase [flavin-containing] A (Homo sapiens, UniProt P21397)          %    32.3
2            CC(=O)c1cccc(OCc2cccc(Br)c2)c1  Amine oxidase [flavin-containing] A (Homo sapiens, UniProt P21397)          %    49.1
3             CC(=O)c1ccc(OCc2cccc(F)c2)cc1  Amine oxidase [flavin-containing] A (Homo sapiens, UniProt P21397)          %    48.4
4    CC(=O)c1ccc(OCc2ccccc2[N+](=O)[O-])cc1  Amine oxidase [flavin-containing] A (Homo sapiens, UniProt P21397)          %      34
5  CC(=O)c1ccc(OCc2ccc([N+](=O)[O-])cc2)cc1  Amine oxidase [flavin-containing] A (Homo sapiens, UniProt P21397)          %    33.8
6  C[C@H](NCc1ccc(OCc2cccc(F)c2)cc1)C(N)=O [SAFINAMIDE]  Amine oxidase [flavin-containing] A (Homo sapiens, UniProt P21397)          %    9.74
7             CC(=O)c1ccc(OCc2ccc(F)cc2)cc1  Amine oxidase [flavin-containing] A (Homo sapiens, UniProt P21397)          %    43.5
